Recorded measurements of pKd, one per entry
study.target: epidermal growth factor (EGF) (Homo sapiens, UniProt P01133)
Construct: epidermal growth factor (EGF)
Sequence (P01133 971-1023 limits assumed, species assumed): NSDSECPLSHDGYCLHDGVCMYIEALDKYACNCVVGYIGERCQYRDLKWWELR
assay.info: macromolecular interaction on chip, EGF
// returns pKd (minus log10 of molar concentration), number only

Answered cases to consult:
| record.smiles | pKd |
| --- | --- |
| CC[C@@]1(O)C(=O)OCc2c1cc1n(c2=O)Cc2c-1nc1cc3c(cc1c2-c1ccncc1)OCO3 | 7.31 |
| CC[C@@]1(O)C(=O)OCc2c1cc1n(c2=O)Cc2c-1nc1cc3c(cc1c2/C=C/c1ccc(F)cc1)OCO3 | 8.28 |

pKd reported for this compound `CC[C@@]1(O)C(=O)OCc2c1cc1n(c2=O)Cc2c-1nc1cc3c(cc1c2CCN1CCOCC1)OCO3` : 8.38

Record `CC[C@@]1(O)C(=O)OCc2c1cc1n(c2=O)Cc2c-1nc1cc3c(cc1c2/C=C/c1cc(F)c(F)c(F)c1)OCO3` , field pKd: 7.29

###

study.target: epidermal growth factor (EGF) (Homo sapiens, UniProt P01133)
Construct: epidermal growth factor (EGF)
assay.info: macromolecular interaction on chip, EGF
Format: binding
measurement.conditions: compound fixed on the chip; EGF 1 μM
measured.parameter: KD EGF

| compound | study.target | KD EGF |
| --- | --- | --- |
| CC[C@@]1(O)C(=O)OCc2c1cc1n(c2=O)Cc2c-1nc1cc3c(cc1c2/C=C/C=C/c1ccc(OC)cc1)OCO3 [Compound 2] | epidermal growth factor (EGF) (Homo sapiens, UniProt P01133) | No combination |
| CC[C@@]1(O)C(=O)OCc2c1cc1n(c2=O)Cc2c-1nc1cc3c(cc1c2CCc1cccc(N2CCOCC2)c1)OCO3 [Compound 14] | epidermal growth factor (EGF) (Homo sapiens, UniProt P01133) | No combination |
| CC[C@@]1(O)C(=O)OCc2c1cc1n(c2=O)Cc2c-1nc1cc3c(cc1c2-c1cnn(C)c1)OCO3 [Compound 25] | epidermal growth factor (EGF) (Homo sapiens, UniProt P01133) | No combination |
| CC[C@@]1(O)C(=O)OCc2c1cc1n(c2=O)Cc2c-1nc1cc3c(cc1c2/C=C/c1cc(F)c(F)c(F)c1)OCO3 [Compound 7] | epidermal growth factor (EGF) (Homo sapiens, UniProt P01133) | can combine |
| CC[C@@]1(O)C(=O)OCc2c1cc1n(c2=O)Cc2c-1nc1cc3c(cc1c2-c1ccncc1)OCO3 [Compound 21] | epidermal growth factor (EGF) (Homo sapiens, UniProt P01133) | can combine |

For record CC[C@@]1(O)C(=O)OCc2c1cc1n(c2=O)Cc2c-1nc1cc3c(cc1c2/C=C/c1cccc(F)c1)OCO3 [Compound 4] the listed KD EGF is No combination

For record CC[C@@]1(O)C(=O)OCc2c1cc1n(c2=O)Cc2c-1nc1cc3c(cc1c2-c1ccc(F)cc1)OCO3 [Compound 32] the listed KD EGF is No combination

Input CC[C@@]1(O)C(=O)OCc2c1cc1n(c2=O)Cc2c-1nc1cc3c(cc1c2-c1ccoc1)OCO3 [Compound 23] . Output KD EGF: No combination

Entry CC[C@@]1(O)C(=O)OCc2c1cc1n(c2=O)Cc2c-1nc1cc3c(cc1c2/C=C/c1ccccc1F)OCO3 [Compound 5] ; KD EGF = No combination

KD EGF reading for CC[C@@]1(O)C(=O)OCc2c1cc1n(c2=O)Cc2c-1nc1cc3c(cc1c2CCc1ccc(N2CCOCC2)c(F)c1)OCO3 [Compound 10] : No combination

response.value for CC[C@@]1(O)C(=O)OCc2c1cc1n(c2=O)Cc2c-1nc1cc3c(cc1c2-c1ccsc1)OCO3 [Compound 24] (field: KD EGF) = No combination

In plain terms, CC[C@@]1(O)C(=O)OCc2c1cc1n(c2=O)Cc2c-1nc1cc3c(cc1c2CCc1ccc(N2CCOCC2)cc1)OCO3 [Compound 8] has a documented KD EGF of No combination

Form: compound = CC[C@@]1(O)C(=O)OCc2c1cc1n(c2=O)Cc2c-1nc1cc3c(cc1c2/C=C/c1ccc(F)c(F)c1)OCO3 [Compound 6] ; KD EGF = No combination

Entry under test: CC[C@@]1(O)C(=O)OCc2c1cc1n(c2=O)Cc2c-1nc1cc3c(cc1c2CCN1CCOCC1)OCO3 [Compound 51] . Its KD EGF was can combine
